# System: Plasmodium falciparum
# Procedure Text: GSK_TCMDC: Inhibition of Plasmodium falciparum Dd2 in whole red blood cells, using parasite LDH activity as an index of growth. Test compounds present at 2uM
# Type: functional
// reported Inhibition for each item listed
Write the number in % without appending the unit.

Completed entries (count: 5):
O=C(Nc1ccc(Br)cc1)N(CCN1CCOCC1)CC(O)COCc1ccc(Cl)c(Cl)c1.O=C(O)C(F)(F)F (stereo not drawn)    52
Cl.N#Cc1ccc2c(c1)CCN(CCC1CCC(NC(=O)c3cc4cccc(Cl)c4[nH]3)CC1)CC2 (stereo not drawn)    78
Cc1cc(F)ccc1[C@H]1CNCCN1C(=O)N(C)C(C)(C)c1cc(C(F)(F)F)cc(C(F)(F)F)c1.Cl    100
CCCCCCNCc1c(O)ccc2c(CNCCCCCC)c(O)ccc12.Cl    100
COc1cccc(C2CCN(CCN3CCC(CNC(=O)c4ccc(-c5ccc(C(F)(F)F)cc5)cc4)CC3)CC2)c1    42

Using Plasmodium falciparum as the test system, report measured Inhibition of O=C(Nc1ccc2nc3n(c(=O)c2c1)CCCCC3)C(=O)N1CCC(Cc2ccccc2)CC1 .
70

Using Plasmodium falciparum as the test system, report measured Inhibition of COc1ccc(C(=O)CCC(=O)N(Cc2ccc(-c3ccc(CNCc4cccnc4)cn3)cc2)C2CCN(Cc3ccccc3)CC2)cc1F.O=C(O)C(F)(F)F .
26

Report Inhibition under test system Plasmodium falciparum for Br.CC1(C)NC(N)=NC(=N)N1OCCCSc1ccccc1 .
94

###

# System: HepG2
# Procedure Text: GSK_TCMDC: Percent inhibition of human HepG2 cell line. Test compounds present at 10uM.
# Assay type: functional
Inhibition for assorted molecules
The reply should be a number in %, with the unit left off.

COc1cc(C(C)C)nc2ccc(NC(=O)c3ccc(C(=O)Nc4ccc5nc(C(C)C)cc(OC)c5c4)cc3)cc12    39
CC1CCc2sc(-c3nnc(SC(C)C(=O)N4CCCC4)o3)cc2C1 (stereo not given)    1
CN(C)c1cc(NC(=O)Nc2ccc(SC(F)(F)F)cc2)c2ccccc2n1    22

Read the entry O=C(/C=C/c1ccc(-c2nc3cc(F)c(F)cc3[nH]2)cc1)NCc1ccc(Cl)c(Cl)c1 and write its reported Inhibition.
14

Find the measured Inhibition of COc1ccc2ncc(F)c(CCN3CC[C@@H](CNCc4nc5c(cc4C)SCC(=O)N5)C3)c2n1.Cl and report it.
14

###

Reported Inhibition values follow for various compounds
# Test system: Plasmodium falciparum
# Procedure Text: GSK_TCMDC: Inhibition of Plasmodium falciparum 3D7 in whole red blood cells, using parasite LDH activity as an index of growth. Test compounds present at 2uM
# Format: functional
Report the value in % with no unit label.

O=C1COc2ccccc2N1C/C=C(\CN1CCC(c2ccccc2)CC1)c1cc(Cl)cc(Cl)c1    91
Cc1ccccc1OCC(O)CN1CCC(C2CCN(CC(O)COc3ccccc3C)CC2)CC1 (centres undefined)    100
COc1ccc(Br)cc1C1C2C(=O)N(c3ccc(Br)cc3)C(=O)C2C2(C(=O)O)CC(OCc3ccccc3)CN12 (centres undefined)    100

Given the compound Cl.Oc1ccc2c(c1NCC1CCCCC1)CCCC2 , write its reported Inhibition.
99

Look up Inhibition of COc1cc(Cc2cnc(N)nc2N)cc(OCCCCCCN2C(=O)c3ccccc3C2=O)c1OC and report it.
95

Name the recorded Inhibition of the item O=C(O)C(F)(F)F.c1cc(-c2ccc(CN3CCCCC3)cc2)cc(-c2nc3ccccc3[nH]2)c1 in your answer.
100

Quickly give me recorded Inhibition for Cc1ccc(Oc2ccccc2NC(=O)CCc2nc3ccccc3c(=O)[nH]2)cc1
100

Kindly indicate its recorded Inhibition. Item: COc1c(C2CCN(CCCCNC(=O)c3ccc(-c4ccc(Cl)cc4)cn3)CC2)ccc2c1CCCC2
93

Note down Inhibition recorded for CCCc1cc(=O)oc2cc(OC)c(C(=O)CC(C)C)c(OC)c12
81
